Molecular target: T1, alpha-s1 casein from Bos taurus
T1 chain: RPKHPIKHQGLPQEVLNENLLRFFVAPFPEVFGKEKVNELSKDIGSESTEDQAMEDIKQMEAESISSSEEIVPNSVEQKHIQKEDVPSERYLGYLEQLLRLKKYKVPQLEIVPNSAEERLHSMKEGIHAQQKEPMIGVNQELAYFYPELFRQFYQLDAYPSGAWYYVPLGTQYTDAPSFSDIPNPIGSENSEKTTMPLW
// αs1-I CN/αs1 CN, 6 hours, 11° C. lookup, one value per entry

bovine chymosin B variant #74 (A51V, K221M) (protein) GEVASVPLTNYLDSQYFGKIYLGTPPQEFTVLFDTGSSDFWVPSIYCKSNVCKNHQRFDPRKSSTFQNLGKPLSIHYGTGSMQGILGYDTVTVSNIVDIQQTVGLSTQEPGDVFTYAEFDGILGMAYPSLASEYSIPVFDNMMNRHLVAQDLFSVYMDRNGQESMLTLGAIDPSYYTGSLHWVPVTVQQYWQFTVDSVTISGVVVACEGGCQAILDTGTSMLVGPSSDILNIQQAIGATQNQYGEFDIDCDNLSYMPTVVFEINGKMYPLTPSAYTSQDQGFCTSGFQSENHSQKWILGDVFIREYYSVFDRANNLVGLAKAI : 0.9
bovine chymosin B variant #71 (A51V, K221V) (protein) GEVASVPLTNYLDSQYFGKIYLGTPPQEFTVLFDTGSSDFWVPSIYCKSNVCKNHQRFDPRKSSTFQNLGKPLSIHYGTGSMQGILGYDTVTVSNIVDIQQTVGLSTQEPGDVFTYAEFDGILGMAYPSLASEYSIPVFDNMMNRHLVAQDLFSVYMDRNGQESMLTLGAIDPSYYTGSLHWVPVTVQQYWQFTVDSVTISGVVVACEGGCQAILDTGTSVLVGPSSDILNIQQAIGATQNQYGEFDIDCDNLSYMPTVVFEINGKMYPLTPSAYTSQDQGFCTSGFQSENHSQKWILGDVFIREYYSVFDRANNLVGLAKAI : 2.9
bovine chymosin B variant #7 (K221V) (protein) GEVASVPLTNYLDSQYFGKIYLGTPPQEFTVLFDTGSSDFWVPSIYCKSNACKNHQRFDPRKSSTFQNLGKPLSIHYGTGSMQGILGYDTVTVSNIVDIQQTVGLSTQEPGDVFTYAEFDGILGMAYPSLASEYSIPVFDNMMNRHLVAQDLFSVYMDRNGQESMLTLGAIDPSYYTGSLHWVPVTVQQYWQFTVDSVTISGVVVACEGGCQAILDTGTSVLVGPSSDILNIQQAIGATQNQYGEFDIDCDNLSYMPTVVFEINGKMYPLTPSAYTSQDQGFCTSGFQSENHSQKWILGDVFIREYYSVFDRANNLVGLAKAI : 2.1

Noted for Chymax M (recombinant camel chymosin) (protein) GKVAREPLTSYLDSQYFGKIYIGTPPQEFTVVFDTGSSDLWVPSIYCKSNVCKNHHRFDPRKSSTFRNLGKPLSIHYGTGSMEGFLGYDTVTVSNIVDPNQTVGLSTEQPGEVFTYSEFDGILGLAYPSLASEYSVPVFDNMMDRHLVARDLFSVYMDRNGQGSMLTLGAIDPSYYTGSLHWVPVTLQQYWQFTVDSVTINGVAVACVGGCQAILDTGTSVLFGPSSDILKIQMAIGATENRYGEFDVNCGNLRSMPTVVFEINGRDYPLSPSAYTSKDQGFCTSGFQGDNNSELWILGDVFIREYYSVFDRANNRVGLAKAI : its αs1-I CN/αs1 CN, 6 hours, 11° C. reads 0.5

Looking up bovine chymosin B variant #6 (K221M) (protein) GEVASVPLTNYLDSQYFGKIYLGTPPQEFTVLFDTGSSDFWVPSIYCKSNACKNHQRFDPRKSSTFQNLGKPLSIHYGTGSMQGILGYDTVTVSNIVDIQQTVGLSTQEPGDVFTYAEFDGILGMAYPSLASEYSIPVFDNMMNRHLVAQDLFSVYMDRNGQESMLTLGAIDPSYYTGSLHWVPVTVQQYWQFTVDSVTISGVVVACEGGCQAILDTGTSMLVGPSSDILNIQQAIGATQNQYGEFDIDCDNLSYMPTVVFEINGKMYPLTPSAYTSQDQGFCTSGFQSENHSQKWILGDVFIREYYSVFDRANNLVGLAKAI , I found its αs1-I CN/αs1 CN, 6 hours, 11° C. recorded as 1

Record bovine chymosin B variant #1 (A51V) (protein) GEVASVPLTNYLDSQYFGKIYLGTPPQEFTVLFDTGSSDFWVPSIYCKSNVCKNHQRFDPRKSSTFQNLGKPLSIHYGTGSMQGILGYDTVTVSNIVDIQQTVGLSTQEPGDVFTYAEFDGILGMAYPSLASEYSIPVFDNMMNRHLVAQDLFSVYMDRNGQESMLTLGAIDPSYYTGSLHWVPVTVQQYWQFTVDSVTISGVVVACEGGCQAILDTGTSKLVGPSSDILNIQQAIGATQNQYGEFDIDCDNLSYMPTVVFEINGKMYPLTPSAYTSQDQGFCTSGFQSENHSQKWILGDVFIREYYSVFDRANNLVGLAKAI , field αs1-I CN/αs1 CN, 6 hours, 11° C.: 0.9

Short answer for Maxiren (recombinant wild-type calf chymosin B) (protein) GEVASVPLTNYLDSQYFGKIYLGTPPQEFTVLFDTGSSDFWVPSIYCKSNACKNHQRFDPRKSSTFQNLGKPLSIHYGTGSMQGILGYDTVTVSNIVDIQQTVGLSTQEPGDVFTYAEFDGILGMAYPSLASEYSIPVFDNMMNRHLVAQDLFSVYMDRNGQESMLTLGAIDPSYYTGSLHWVPVTVQQYWQFTVDSVTISGVVVACEGGCQAILDTGTSKLVGPSSDILNIQQAIGATQNQYGEFDIDCDNLSYMPTVVFEINGKMYPLTPSAYTSQDQGFCTSGFQSENHSQKWILGDVFIREYYSVFDRANNLVGLAKAI : αs1-I CN/αs1 CN, 6 hours, 11° C. was 1.9

Numbers sourced from patent US20150140169.
